The reported measurements were obtained from PubChem BioAssay AID651629.

Experiment: TAG lipid buildup inhibition in H9c2 – cell-based, single concentration, Nile Red fluorescence, confirmation (AID 651629)
Settings: H9c2 lipid accumulation, at 12.5 µM, cells loaded with 200 µM oleic acid
Some of the results follow. Active and inactive are the calls of the source.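 The calls were made as follows: active = mean inhibition across replicates of 40% or more; inactive = mean inhibition below 40%.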
Possible outcomes: active, inactive

* CCN(CC)CCC(c1ccc2c(c1)OCO2)c1c(OC)cc(OC)c2c(-c3ccccc3)cc(=O)oc12 (configuration not stated) | active
* CN(C)C(=S)N=c1ssc(=S)n1Cc1ccco1 | active
* CC(=O)c1ccc(Oc2cc(C)nc(-n3nc(C)cc3C)n2)cc1 | active
* CN(C)C(=O)c1cccc(-c2cnc3c(NC=O)cc(-c4ccc(C(=O)N5CCOCC5)cc4)cn23)c1 | active
* CCCC(=O)Nc1nc2ccc(NC(=O)c3c(F)c(F)c(OC)c(F)c3F)cc2s1 | active
* COc1ccc(Nc2cc(=O)oc3ccccc23)cc1 | active
* CCOC(=O)N1CCN(C(=O)c2ccccc2N(Cc2ccccc2)S(=O)(=O)c2ccc(OC)cc2)CC1 | active
* C=CCn1c(SCc2c(C)noc2C)nc2sc3c(c2c1=O)CCC(C)C3 (configuration not stated) | active
* O=C(Nc1ccccc1)Oc1cccc2cccnc12 | inactive
* Cc1ccc(-c2nc3ccccc3[nH]2)cc1NC(=O)c1sc2ccccc2c1Cl | inactive
* Cc1onc(NC(=O)c2ccc([N+](=O)[O-])o2)c1Br | active
* COc1ccc2sc(-c3ccc(N(C)C)cc3)c(C#CCO)c2c1 | active
* O=C(Cc1cccc2ccccc12)Nc1ccc2oc(-c3ccccc3)nc2c1 | inactive
* CC1(c2ccccc2)CC(C)(C)N(C(=O)c2cc([N+](=O)[O-])cc([N+](=O)[O-])c2)c2ccccc21 (configuration not stated) | active
* COc1ccc(CC(=O)Nc2ccc(-c3nnc(-c4ccc(C)cc4)o3)cc2)cc1 | active
* COC(C[C@H](O)CC(=O)COCc1ccccc1)OC | inactive
* Cc1ccccc1NC(=O)CSc1nc2ccc(Nc3nc(N4CCOCC4)nc(N4CCOCC4)n3)cc2s1 | active
